# Tested on: DMS 273 small cell lung
# Protocol Description: NCI tumour cell line growth inhibition, 48 h
Reported TGI values are given for each entry in this list.
Metric: TGI

Compound: CCOC(=O)C(=C=Cc1cccs1)C(=O)c1ccccc1
Metric: TGI
Recorded Value: 31.3 µM
//
Compound: COc1ccc(/C=N\N2C(=O)Cc3ccccc32)cc1
Metric: TGI
Recorded Value: > 100 µM
//
Compound: COC(=O)CC[C@@H](NC(=O)C(C)NC(=O)COC1C(O)C(COC(=O)CCCCCCCCCCNC(=O)c2ccc([N+](=O)[O-])c3[nH]c4cc(Br)ccc4c(=O)c23)OC(OCc2ccccc2)C1NC(C)=O)C(N)=O (stereo not given in full)
Metric: TGI
Recorded Value: > 100 µM
//
Compound: O=C1CCCn2c3ccccc3c3ccnc1c32
Metric: TGI
Recorded Value: > 100 µM
//
Compound: Nc1ncnc2c1ncn2C1OC(CO)C(O)C1O (stereo not given)
Metric: TGI
Recorded Value: > 450 µM
//
Compound: CCCCc1c2c(nc3c1CCc1cc(C=O)c(N)nc1-3)/C(=C/c1ccccc1)CCC2
Metric: TGI
Recorded Value: > 100 µM
//
Compound: COc1cc(OC)c(Oc2cccc(OC)c2OC)c(OC)c1
Metric: TGI
Recorded Value: > 100 µM
//
Compound: O=C(CCCCCCCCC(=O)OCCCn1cc(C(=O)NC(=O)OCc2ccccc2)c(=O)[nH]c1=O)OCCCn1cc(C(=O)NC(=O)OCc2ccccc2)c(=O)[nH]c1=O
Metric: TGI
Recorded Value: > 100 µM
//
Compound: CC(C)CCC[C@@H](C)C1CCC2[C@@H]3CC=C4C[C@@H](OC(=O)CCC(=O)NCC[N+](C)(C)CCCS(=O)(=O)[O-])CC[C@]4(C)C3CC[C@@]21C (stereo not given in full)
Metric: TGI
Recorded Value: 28.5 µM
//
Compound: CSCC[C@@H](NC(=O)[C@H](CC(C)C)NC(=O)C(Cc1cnc[nH]1)NC(=O)CNC(=O)[C@@H](NC(=O)[C@H](C)NC(=O)[C@H](Cc1cn(C=O)c2ccccc12)NC(=O)[C@H](CCC(N)=O)NC(=O)[C@@H](N)CC(N)=O)C(C)C)C(N)=O (stereo not given in full)
Metric: TGI
Recorded Value: > 100 µM
//
Compound: CCCCCCCCOCC(O)COC (stereo not given)
Metric: TGI
Recorded Value: > 100 µM
//
Compound: C[N+](C)(C)CC(=O)NC(=O)N/N=C\C(CC#N)CN(Cc1ccccc1)Cc1ccccc1 (stereo not given)
Metric: TGI
Recorded Value: > 100 µM
//
Compound: COc1ncn(C2C=C(CO)C(O)C2O)c(=O)n1 (stereo not given)
Metric: TGI
Recorded Value: > 100 µM
//
Compound: c1ccc(C[P+]2(c3ccccc3)CCCCC2)cc1
Metric: TGI
Recorded Value: > 100 µM
//
Compound: CC(=O)OCC1OC(n2c(-c3ccc(N)cc3)cc(-c3ccco3)c(C#N)c2=O)C(OC(C)=O)C(OC(C)=O)C1OC(C)=O (stereo not given)
Metric: TGI
Recorded Value: > 50 µM
